System: CHO
method-notes: Selectivity ratio of IC50 for human OX1R Ile408Val mutant expressed in CHO cells to IC50 for human OX2R expressed in CHO cells
Assay type: cell-based
observed-property: Ratio IC50
The response must contain the number and no unit.

Challenge: Look at this molecule and give its reported Ratio IC50. "COc1ccc(CNC(=O)c2cc(-c3cncc(C)c3)cnc2-c2ccccc2)nc1OC"
Response given: 154

Challenge: Look at this molecule and give its reported Ratio IC50. "COc1ccc(CNC(=O)c2cc(-c3cncc(C)c3)ncc2-c2cccc(F)c2)nc1OC"
Response given: 122

Challenge: Look at this molecule and give its reported Ratio IC50. "COc1ccc(CNC(=O)c2cc(-c3cncc(C)c3)ncc2-c2ccccn2)nc1OC"
Response given: 129

Challenge: Look at this molecule and give its reported Ratio IC50. "COc1ccc(CNC(=O)c2cc(-c3cncc(C)c3)ncc2-c2cncc(F)c2)nc1OC"
Response given: 192
